assay: NCI Yeast Anticancer Drug Screen. Data for the mlh1 rad18 strain (AID 175); conditions: S. cerevisiae mlh1 rad18 strain growth inhibition; at 50.0 µM; stronger effect = higher value
This is part of a sample that, as a whole, favours compounds with a hit. Of some 79,000 tested, about 15% had one in any assay.
Parameter growth inhibition: see the listing below.
The reply should be a number in %, with the unit left off.

>>> measured("CCOc1ccccc1Nc1nc(C)c(C(=O)CC(=O)C(=O)Nc2ccccc2)s1")
12.9
>>> measured("O=S(=O)(Nc1cccc(Br)c1)N1CCCCC1")
31.6
>>> measured("CC(=O)c1ccc(C2CCC[C@H]2c2ccc(C(C)=O)cc2)cc1 (stereo not given in full)")
-16.4
>>> measured("O=S(=O)(Cl)C1c2ccccc2-c2ccccc21")
23.4
>>> measured("CC(c1cccc2ccccc12)/[N+]([O-])=C/c1ccccc1 (stereo not given)")
-11.7

// query Reported growth inhibition for `CCOC(=O)c1ccc(N=C2C(=S)N(c3ccc(C(=O)OCC)cc3)C(=N)N2/N=C/c2ccccc2)cc1` : what is it?
// result 1.95

// query Reported growth inhibition for Cc1cc2ncn(C3CCCCO3)c2cc1C (stereo not given) : what is it?
// result -26.4

// query Reported growth inhibition for `N#C/C(=N\NC(=O)c1cccs1)c1ccccc1Cl` : what is it?
// result 3.45

Just for reference, PubChem BioAssay (NCI) is where these values come from.
